The measured values listed here are drawn from the supplement of paper PMC8612539.

System: Escherichia coli
Measurement Protocol: minimum inhibitory concentration (MIC)
Experimental Context: isolate (source animal id): 122
Kindly supply the reported minimum inhibitory concentration values for the records listed here.

Here is how some compounds turned out for minimum inhibitory concentration.
{"Compound": "CC[C@H]1OC(=O)C[C@@H](O)[C@H](C)[C@@H](O[C@@H]2O[C@H](C)[C@@H](O)[C@H](N(C)C)[C@H]2O)[C@@H](CCN2C[C@H](C)C[C@H](C)C2)C[C@@H](C)C(=O)/C=C/C(C)=C/[C@@H]1CO[C@@H]1O[C@H](C)[C@@H](O)[C@@H](OC)[C@H]1OC", "minimum inhibitory concentration": "> 16 µg/mL"}
{"Compound": "COc1cc(Cc2cnc(N)nc2N)cc(OC)c1OC.Cc1cc(NS(=O)(=O)c2ccc(N)cc2)no1", "minimum inhibitory concentration": "> 2 µg/mL"}
{"Compound": "CCC[C@@H]1C[C@@H](C(=O)N[C@@H]([C@H]2O[C@H](SC)[C@H](O)[C@@H](O)[C@H]2O)[C@H](C)Cl)N(C)C1", "minimum inhibitory concentration": "> 16 µg/mL"}
{"Compound": "CNC(C)C1CCC(N)C(OC2C(N)CC(N)C(OC3OCC(C)(O)C(NC)C3O)C2O)O1 (configuration not stated)", "minimum inhibitory concentration": "8 µg/mL"}
{"Compound": "CN[C@@H]1[C@H](O)[C@H](NC)[C@H]2O[C@@]3(O)C(=O)C[C@@H](C)O[C@H]3O[C@@H]2[C@H]1O", "minimum inhibitory concentration": "> 64 µg/mL"}

// for each compound in input: emit minimum inhibitory concentration
1. CC[C@H]1OC(=O)C[C@@H](O)[C@H](C)[C@@H](O[C@@H]2O[C@H](C)[C@@H](O[C@H]3C[C@@](C)(O)[C@@H](O)[C@H](C)O3)[C@H](N(C)C)[C@H]2O)[C@@H](CC=O)C[C@@H](C)C(=O)/C=C/C(C)=C/[C@@H]1CO[C@@H]1O[C@H](C)[C@@H](O)[C@@H](OC)[C@H]1OC
2. CO/N=C(\C(=O)N[C@@H]1C(=O)N2C(C(=O)O)=C(CSC(=O)c3ccco3)CS[C@H]12)c1csc(N)n1

1: > 32 µg/mL; 2: 0.5 µg/mL

----------
System: Pasteurella multocida
Measurement Protocol: minimum inhibitory concentration (MIC)
Experimental Context: isolate (source animal id): 11
Reported Metric: minimum inhibitory concentration (µg/mL)
One number for each entry, in µg/mL.

{"Compound": "C=C[C@]1(C)C[C@@H](OC(=O)CSCCN(CC)CC)[C@]2(C)[C@H](C)CC[C@]3(CCC(=O)[C@H]32)[C@@H](C)[C@@H]1O [Tiamulin]", "System": "Pasteurella multocida", "minimum inhibitory concentration, µg/mL": 16}

Now for another entry.
Fill blank: measured minimum inhibitory concentration of the compound CN1C[C@@H]2C[C@H]1CN2c1cc2c(cc1F)c(=O)c(C(=O)O)cn2C1CC1 [Danofloxacin] is ____.
1

----------
System: Escherichia coli
Measurement Protocol: minimum inhibitory concentration (MIC)
Experimental Context: isolate (source animal id): 149
Kindly supply the reported minimum inhibitory concentration values for the records listed here.

// for each compound in input: emit minimum inhibitory concentration
1. COc1cc(Cc2cnc(N)nc2N)cc(OC)c1OC.Cc1cc(NS(=O)(=O)c2ccc(N)cc2)no1
2. CCCN1C[C@H](C)[C@@H](O)[C@](C)(O)[C@@H](CC)OC(=O)[C@H](C)[C@@H](O[C@H]2C[C@@](C)(OC)[C@@H](O)[C@H](C)O2)[C@H](C)[C@@H](O[C@@H]2O[C@H](C)C[C@H](N(C)C)[C@H]2O)[C@](C)(O)C[C@H]1C
3. CC[C@H]1OC(=O)C[C@@H](O)[C@H](C)[C@@H](O[C@@H]2O[C@H](C)[C@@H](O)[C@H](N(C)C)[C@H]2O)[C@@H](CCN2CCCCC2)C[C@@H](C)C(=O)/C=C/C(C)=C/[C@@H]1CN1CCCCC1

≤ 2 µg/mL
8 µg/mL
4 µg/mL

----------
Tested on: Escherichia coli
Measurement Protocol: minimum inhibitory concentration (MIC)
Experimental Context: isolate (source animal id): 11
Kindly supply the reported minimum inhibitory concentration values for the records listed here.

Here is how some molecules turned out for minimum inhibitory concentration.
{"Structure": "CN1C[C@@H]2C[C@H]1CN2c1cc2c(cc1F)c(=O)c(C(=O)O)cn2C1CC1", "Reported Metric": "minimum inhibitory concentration", "Assay Value": "≤ 0.12 µg/mL"}
{"Structure": "C=C[C@]1(C)C[C@@H](OC(=O)CSCCN(CC)CC)[C@]2(C)[C@H](C)CC[C@]3(CCC(=O)[C@H]32)[C@@H](C)[C@@H]1O", "Reported Metric": "minimum inhibitory concentration", "Assay Value": "> 32 µg/mL"}

Fill blank: measured minimum inhibitory concentration of the molecule CC[C@H]1OC(=O)C[C@@H](O)[C@H](C)[C@@H](O[C@@H]2O[C@H](C)[C@@H](O)[C@H](N(C)C)[C@H]2O)[C@@H](CCN2C[C@H](C)C[C@H](C)C2)C[C@@H](C)C(=O)/C=C/C(C)=C/[C@@H]1CO[C@@H]1O[C@H](C)[C@@H](O)[C@@H](OC)[C@H]1OC is ____.
> 16 µg/mL

----------
Kindly supply the reported minimum inhibitory concentration values for the records listed here.
System: Escherichia coli
Measurement Protocol: minimum inhibitory concentration (MIC)
Experimental Context: isolate (source animal id): 130

{"Structure": "CC[C@H]1OC(=O)C[C@@H](O)[C@H](C)[C@@H](O[C@@H]2O[C@H](C)[C@@H](O)[C@H](N(C)C)[C@H]2O)[C@@H](CCN2C[C@H](C)C[C@H](C)C2)C[C@@H](C)C(=O)/C=C/C(C)=C/[C@@H]1CO[C@@H]1O[C@H](C)[C@@H](O)[C@@H](OC)[C@H]1OC", "minimum inhibitory concentration": "> 16 mg/L"}
{"Structure": "CC[C@H]1OC(=O)C[C@@H](O)[C@H](C)[C@@H](O[C@@H]2O[C@H](C)[C@@H](O[C@H]3C[C@@](C)(O)[C@@H](O)[C@H](C)O3)[C@H](N(C)C)[C@H]2O)[C@@H](CC=O)C[C@@H](C)C(=O)/C=C/C(C)=C/[C@@H]1CO[C@@H]1O[C@H](C)[C@@H](O)[C@@H](OC)[C@H]1OC", "minimum inhibitory concentration": "> 32 mg/L"}
{"Structure": "CC1(C)S[C@@H]2[C@H](NC(=O)Cc3ccccc3)C(=O)N2[C@H]1C(=O)O", "minimum inhibitory concentration": "> 8 mg/L"}
{"Structure": "COc1cc(NS(=O)(=O)c2ccc(N)cc2)nc(OC)n1", "minimum inhibitory concentration": "> 256 mg/L"}

Now for another entry.
Fill blank: measured minimum inhibitory concentration of the compound COc1cc(Cc2cnc(N)nc2N)cc(OC)c1OC.Cc1cc(NS(=O)(=O)c2ccc(N)cc2)no1 is ____.
> 2 mg/L

----------
Tested on: Histophilus somni
Measurement Protocol: minimum inhibitory concentration (MIC)
Experimental Context: isolate (source animal id): 276
Kindly supply the reported minimum inhibitory concentration values for the records listed here.

Here is how some compounds turned out for minimum inhibitory concentration.
{"Compound": "CCN1CCN(c2cc3c(cc2F)c(=O)c(C(=O)O)cn3C2CC2)CC1 [Enrofloxacin]", "minimum inhibitory concentration": "≤ 0.12 µg/mL"}
{"Compound": "CC1(C)S[C@@H]2[C@H](NC(=O)[C@H](N)c3ccccc3)C(=O)N2[C@H]1C(=O)O [Ampicillin]", "minimum inhibitory concentration": "≤ 0.25 µg/mL"}
{"Compound": "CC[C@H]1OC(=O)C[C@@H](O)[C@H](C)[C@@H](O[C@@H]2O[C@H](C)[C@@H](O)[C@H](N(C)C)[C@H]2O)[C@@H](CCN2C[C@H](C)C[C@H](C)C2)C[C@@H](C)C(=O)/C=C/C(C)=C/[C@@H]1CO[C@@H]1O[C@H](C)[C@@H](O)[C@@H](OC)[C@H]1OC [Tilmicosin]", "minimum inhibitory concentration": "≤ 2 µg/mL"}
{"Compound": "CN(C)[C@@H]1C(O)=C(C(N)=O)C(=O)[C@@]2(O)C(O)=C3C(=O)c4c(O)cccc4[C@@](C)(O)[C@H]3C[C@@H]12 [Tetracycline]", "minimum inhibitory concentration": "≤ 0.5 µg/mL"}

Fill blank: measured minimum inhibitory concentration of the compound NC[C@@H]1O[C@H](O[C@H]2[C@@H](O)[C@H](O[C@@H]3[C@@H](O)[C@H](N)C[C@H](N)[C@H]3O[C@H]3O[C@H](CN)[C@@H](O)[C@H](O)[C@H]3N)O[C@@H]2CO)[C@H](N)[C@@H](O)[C@@H]1O [Neomycin] is ____.
≤ 4 µg/mL

----------
System: Mannheimia haemolytica
Measurement Protocol: minimum inhibitory concentration (MIC)
Experimental Context: isolate (source animal id): 237
Kindly supply the reported minimum inhibitory concentration values for the records listed here.

{"Structure": "CC[C@H]1OC(=O)C[C@@H](O)[C@H](C)[C@@H](O[C@@H]2O[C@H](C)[C@@H](O[C@H]3C[C@@](C)(O)[C@@H](O)[C@H](C)O3)[C@H](N(C)C)[C@H]2O)[C@@H](CC=O)C[C@@H](C)C(=O)/C=C/C(C)=C/[C@@H]1CO[C@@H]1O[C@H](C)[C@@H](O)[C@@H](OC)[C@H]1OC", "Assay Value": "> 32 µg/mL"}

Fill blank: measured minimum inhibitory concentration of the compound CO/N=C(\C(=O)N[C@@H]1C(=O)N2C(C(=O)O)=C(CSC(=O)c3ccco3)CS[C@H]12)c1csc(N)n1 is ____.
≤ 0.25 µg/mL
